Target: Chromobox protein homolog 7 (Homo sapiens)
Sequence (O95931 whole entry): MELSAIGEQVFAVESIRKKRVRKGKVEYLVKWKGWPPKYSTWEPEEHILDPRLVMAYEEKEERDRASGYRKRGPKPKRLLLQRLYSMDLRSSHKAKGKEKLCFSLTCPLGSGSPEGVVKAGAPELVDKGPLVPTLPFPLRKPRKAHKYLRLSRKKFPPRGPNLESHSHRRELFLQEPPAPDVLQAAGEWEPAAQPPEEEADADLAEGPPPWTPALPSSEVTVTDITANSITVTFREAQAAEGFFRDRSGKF
pIC50: −log10 of the molar value.
This section presents pIC50 values reported for Chromobox protein homolog 7 (Homo sapiens) in the literature.

Sample answers from the record:
compound	measuredOn	measurementKind	endpointValue
O=C(c1ccc(N2CCC(N3CCCC3)CC2)cc1)N1CCC(N2CCCC2)CC1	Chromobox protein homolog 7 (Homo sapiens)	pIC50	< 5.00
c1cc(N2CCC(N3CCCC3)CC2)ccc1N1CCC(N2CCCC2)CC1	Chromobox protein homolog 7 (Homo sapiens)	pIC50	< 4.52
O=C(CCc1ccc(N2CCC(N3CCCC3)CC2)cc1)N1CCCC1	Chromobox protein homolog 7 (Homo sapiens)	pIC50	< 4.52
O=C(c1ccc(C(=O)N2CCC(N3CCCC3)CC2)c(Oc2ccccc2)c1)N1CCC(N2CCCC2)CC1	Chromobox protein homolog 7 (Homo sapiens)	pIC50	< 5.00
CC(=O)N[C@@H](Cc1ccccc1)C(=O)N[C@@H](C)C(=O)N[C@@H](CC(C)C)C(=O)N[C@@H](CCCC[N+](C)(C)C)C(=O)N[C@H](CO)C(N)=O	Chromobox protein homolog 7 (Homo sapiens)	pIC50	5.05
CCN1Cc2ccc(NC(=O)c3ccc(C(=O)N4CC5CCC(C4)C5N4CCCC4)cc3)cc2C1 (centres undefined)	Chromobox protein homolog 7 (Homo sapiens)	pIC50	< 5.00

Ask | Give pIC50; test system Chromobox protein homolog 7 (Homo sapiens); compound `FC1(F)CN(CCc2ccc(N3CCC(N4CCCC4)CC3)cc2)C1`
Reply | < 4.52

Ask | Give pIC50; test system Chromobox protein homolog 7 (Homo sapiens); compound `c1ccc(N2CCC(N3CCCC3)CC2)cc1`
Reply | < 4.52

Ask | Give pIC50; test system Chromobox protein homolog 7 (Homo sapiens); compound `CN1CCC(N2CCN(C(=O)c3ccc(C(=O)N4CCC(N5CCCC5)CC4)cc3)CC2)CC1`
Reply | < 5.00
